# System: NCI/ADR-RES ovarian
# protocol_details: NCI tumour cell line growth inhibition, 48 h
measured_endpoint: log10(TGI) (log10 of the value in µM)
Scale type: logarithmic (base 10). Underlying TGI unit: µM.

Look over these answered cases.
molecule	target_or_system	log10(TGI)
O=C1C=Cc2c(Cl)sc(Cl)c21	NCI/ADR-RES ovarian	0.73
CC1(C)CCC[C@]2(C)[C@@H]1CC[C@@]13O[C@@H]1C1=C(CO)C(=O)O[C@]14O[C@@H]4[C@@H]23	NCI/ADR-RES ovarian	1.59
COc1ccc(C(=O)/C=C/c2ccc(Cl)cc2)cc1S(N)(=O)=O	NCI/ADR-RES ovarian	1.38
CCOC(=O)c1cc2c(n1Cc1cccc(OC)c1)-c1oncc1CC2	NCI/ADR-RES ovarian	0.71
C=C1C(=O)O[C@@H]2[C@@H]3O[C@@](C)(CC/C=C(\C)CCC[C@@H]2C)[C@H](O)C[C@@H]13	NCI/ADR-RES ovarian	0.66
C=C1C(=O)OC(CCCCCCCC)C1C(=O)O (centres undefined)	NCI/ADR-RES ovarian	1.78
O=C(CCCCCCc1nc2ccc(Br)cc2[nH]1)NO	NCI/ADR-RES ovarian	0.27
COc1ccc(C(=O)CC2(O)C(=O)Nc3c(Cl)ccc(Cl)c32)cc1 (centres undefined)	NCI/ADR-RES ovarian	1.29

Task item: Field request: log10(TGI) | item: CCN(CC)CCCCCCCCNc1c2ccc(Cl)cc2nc2ccc(OC)cc12
Reply: 1.01

----------
Measured TGI values are reported for all entries that follow.
# System: SK-MEL-5 melanoma
# protocol_details: NCI tumour cell line growth inhibition, 48 h
Unit µM implied. Number only.

Look over these answered cases.
compound	TGI [µM]
COc1cc([C@@H]2c3cc4c(cc3[C@H](OC3OC5COC(c6ccccc6)OC5C(O)C3O)[C@H]3COC(=O)[C@H]23)OCO4)cc(OC)c1OC (some centres undefined)	0.715
CN(NC(=O)/C(=C/c1ccc(O)cc1)NC(=O)c1ccccc1)c1ccnc2cc(Cl)ccc12	37.5
Oc1nc(N/N=C/c2c[nH]c3ccccc23)[nH]c1/C=C1\C=Nc2ccccc21	38.1
CCN(CC)CCn1c(=N)n(CC(O)c2ccc(Cl)c(Cl)c2)c2ccccc21 (centres undefined)	3.15

Task item: Field request: TGI | item: COc1ccc(C(=O)c2cc3c(N)c(C(=O)Nc4cccc(Cl)c4)sc3nc2C)cc1
Reply: 2.6

Task item: Follow-up entry: COc1cc2c(cc1OCCCC(=O)Nc1cc(C(=O)Nc3cc(C(=O)Nc4cc(C(=O)NCCCN(C)C)n(C)c4)n(C)c3)n(C)c1)N=C[C@@H]1CCCN1C2=O
Reply: 6.65

Task item: Follow-up entry: COC(c1ccsc1)C(C#N)(C#N)N=Cc1ccsc1 (centres undefined)
Reply: 27.7

----------
# System: HCT-15 colon
# protocol_details: NCI tumour cell line growth inhibition, 48 h; in the data active = GI50 below about 0.43 µM; inactive = the rest
Use one of these outcomes when replying: TRUE for active, FALSE for inactive

Take a look at these entries with their results.
compound	class_name
Cn1cc(-c2ccc3cc(-c4ccc(CC(=O)Nc5cc(C(C)(C)C)nn5C)cc4)cnc3c2)cn1	TRUE
CCN1CCC(C(=O)Nc2n[nH]c3nnc(-c4cccc(F)c4F)cc23)CC1	FALSE
CCN(CC)CCCCCCCCNc1c2ccc(Cl)cc2nc2ccc(OC)cc12	FALSE

Task item: // outcome(item) with item = COc1ccc(C(=O)CC2(O)C(=O)Nc3c(Cl)ccc(Cl)c32)cc1 (centres undefined)
Reply: FALSE
